target: human GLP-1 receptor (human, UniProt P43220 24-463); test: cell-based or functional assay
Starred links: 1 amine or outer side, 2 acyl side, 3 side chain; linkers in the order of their positions; H or OH if unused. Non-standard residues stand in square brackets, D forms with d. Groups on a side chain read outwards from the residue. No end group written: not given here. *: point of attachment. C18 diacid = O=C(O)CCCCCCCCCCCCCCCCC(=O)*; γGlu = O=C(O)[C@H](CCC(=O)[*:2])N[*:1]; AEEA = NCCOCCOCC(=O)O; Aib = CC(C)(N)C(=O)O
PROPERTY MEASURED: EC50 CreLuc hGLP1R 100% hP (nM)

• YXEGTFTSDYSIXLEKQAQXAFVEWLIKGGPSSGASIRHYYNWLTRQRY (Aib at 2, 13, 20; K28 side chain: C20DA-gGlu-gGlu-gGlu-gGlu-gGlu-gGlu-eLys; C-terminal NH2) [Compound 132] = 3.76
• YXEGTFTSDYSIXLEKQAQXAFVEWLIKGGPSSGISLRHYYNWLTRQRY (Aib at 2, 13, 20; K28 side chain: C20DA-gGlu-gGlu-gGlu-gGlu-gGlu-gGlu-eLys; C-terminal NH2) [Compound 94] = 1.98
• YXEGTFTSDLSIXLEKQAQXAFVEWLIKGGPSSGASLRHYYNWLTRQRY (Aib at 2, 13, 20; K28 side chain: C20DA-gGlu-gGlu-gGlu-gGlu-gGlu-gGlu-eLys; C-terminal NH2) [Compound 172] = 2
• Y[Aib]EGTFTSDYSI[Aib]LEKQAQ[Aib]AFVEWLIK([AEEA-AEEA-γGlu-γGlu-γGlu-γGlu-C18 diacid])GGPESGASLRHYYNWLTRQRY-NH2 [Compound 163] = 4.72
• YXEGTFTSDYSIXLEKQAQXEFVQWLIKGGPSEGASLRHYYNWLTRQRY (Aib at 2, 13, 20; K28 side chain: C18DA-gGlu-gGlu-gGlu-gGlu-gGlu-gGlu-eLys; C-terminal NH2) [Compound 153] = 6.12
